target: SNAP-Syk tSH2 (mouse, UniProt P48025 1-262); experiment: liposome-based fluorescence quenching assay: SNAP-505-labelled Syk tSH2 reporter, rhodamine-PE liposomes carrying His10-receptor tail (0 to 500 nM) phosphorylated by His10-Lck Y505F after ATP; Kd ± SE from a one-site specific binding fit
pKd: −log10 of the molar value. No end group written: not given here.

[
  {
    "Binder": "His10-FcRγ (other, human, not fully specified, range 45-85; titrated 0 to 500 nM; also called His10-FcRγ intracellular chain; His10-FcRγ-chain) HHHHHHHHHHRLKIQVRKAAITSYEKSDGVYTGLSTRNQETYETLKHEKPP",
    "pKd": 7.51
  }
]
